Experiment: Human plasma stability assay (Test 2)
Assay type: in vitro ADME
Settings: heparinated human plasma, 0.5 uM test compound, 37° C., up to 120 minutes; read-out: Test 2 T½
Each entry below carries its reported half-life at 0.5 uM.
MEASURED_ATTRIBUTE: half-life at 0.5 uM

> print(dat)
                                   compound   measurement
1  CCCCC[C@H](O)CC[C@@H]1[C@H]2Cc3cccc(OCC(=O)OC(C)C)c3C[C@H]2C[C@H]1O [Compound 20]  31 to 60 min
2  CCCCC[C@H](O)CC[C@@H]1[C@H]2Cc3cccc(OCC(=O)OCCCF)c3C[C@H]2C[C@H]1O [Compound 4]      < 15 min
3  CCCCC[C@H](O)CC[C@@H]1[C@H]2Cc3cccc(OCC(=O)OC)c3C[C@H]2C[C@H]1OC(=O)CC(C)C [Compound 23]      > 60 min
4  CCCCC[C@H](O)CC[C@@H]1[C@H]2Cc3cccc(OCC(=O)OCC4CC4)c3C[C@H]2C[C@H]1O [Compound 1]      < 15 min
5  CCCCC[C@H](O)CC[C@@H]1[C@H]2Cc3cccc(OCC(=O)OC)c3C[C@H]2C[C@H]1OC(=O)C1CC1 [Compound 24]      > 60 min
6  CCCCC[C@H](O)CC[C@@H]1[C@H]2Cc3cccc(OCC(=O)OC)c3C[C@H]2C[C@H]1OC(=O)OCC [Compound 25]      > 60 min
7  CCCCC[C@H](O)CC[C@@H]1[C@H]2Cc3cccc(OCC(=O)O[C@@H](C)C(C)C)c3C[C@H]2C[C@H]1O [Compound 63]  31 to 60 min
8  CCCCC[C@H](O)CC[C@@H]1[C@H]2Cc3cccc(OCC(=O)OC)c3C[C@H]2C[C@H]1O [Compound 15]      < 15 min

---

Experiment: Human plasma stability assay (Test 2)
Type: in vitro ADME
Settings: heparinated human plasma, 0.5 uM test compound, 37° C., up to 120 minutes; read-out: Test 2 T½
MEASURED_ATTRIBUTE: half-life at 0.5 uM

> print(dat)
                                   molecule   measurement
1  CCCCCCCCOC(=O)COc1cccc2c1C[C@H]1C[C@@H](O)[C@H](CC[C@@H](O)CCCCC)[C@H]1C2      > 60 min
2  CCCCC[C@H](O)CC[C@@H]1[C@H]2Cc3cccc(OCC(=O)NCCCO)c3C[C@H]2C[C@H]1O      > 60 min
3  CCCCC[C@H](O)CC[C@@H]1[C@H]2Cc3cccc(OCC(=O)OC4CC5CCC4C5)c3C[C@H]2C[C@H]1O (some centres unmarked)  31 to 60 min
4  CCCCC[C@H](O)CC[C@@H]1[C@H]2Cc3cccc(OCC(=O)OC4CCOC4)c3C[C@H]2C[C@H]1O (some centres unmarked)      < 15 min
5  CCCCC[C@H](O)CC[C@@H]1[C@H]2Cc3cccc(OCC(=O)OC(C)(C)C)c3C[C@H]2C[C@H]1O  15 to 30 min
